The values you see were collected from patent US4605744A.

System: S. marcescens S3
Assay: In vitro antibacterial activity (MIC)
Assay type: cell-based
Settings: Serratia marcescens; S. marcescens S3; read-out: MIC
Counter-ions that a name gives are not always drawn.
quantity.measured: MIC (µg/mL)
Respond numerically; units are µg/mL and should not be typed.

Inquiry: Report MIC, nothing else, for this molecule: CC1(C)S[C@@H]2[C@H](N=CN3CCC(CCCn4ccnc4N)CC3)C(=O)N2[C@H]1C(=O)O [I, hydrochloride]
Reply text: 0.062

Inquiry: Report MIC, nothing else, for this molecule: CC1(C)S[C@@H]2[C@H](N=CN3CCC(C4=NCCN4)CC3)C(=O)N2[C@H]1C(=O)O [L, hydrochloride]
Reply text: 0.5

Inquiry: Report MIC, nothing else, for this molecule: CC1(C)S[C@@H]2[C@H](N=CN3CCC(CCCn4ccnc4[N+](=O)[O-])CC3)C(=O)N2[C@H]1C(=O)O [K, hydrate]
Reply text: 4

Inquiry: Report MIC, nothing else, for this molecule: CC1(C)S[C@@H]2[C@H](N=CN3CCC(CC4=NCCN4)CC3)C(=O)N2[C@H]1C(=O)O [M, hydrochloride]
Reply text: 0.125

Inquiry: Report MIC, nothing else, for this molecule: CC1(C)S[C@@H]2[C@H](/N=C/N3CCCCCC3)C(=O)N2[C@H]1C(=O)O [Amdinocillin, amdinocillin, reference compound]
Reply text: 0.062

Inquiry: Report MIC, nothing else, for this molecule: Cc1nc(C)n(CCCC2CCN(C=N[C@@H]3C(=O)N4[C@@H]3SC(C)(C)[C@@H]4C(=O)O)CC2)c1C [E, hydrate hydrochloride]
Reply text: 0.25

Inquiry: Report MIC, nothing else, for this molecule: CC1(C)S[C@@H]2[C@H](N=CN3CCC(Cn4ccnc4N)CC3)C(=O)N2[C@H]1C(=O)O [H, hydrochloride]
Reply text: 0.125

Inquiry: Report MIC, nothing else, for this molecule: CCc1nc(C)cn1CCCC1CCN(C=N[C@@H]2C(=O)N3[C@@H]2SC(C)(C)[C@@H]3C(=O)O)CC1 [G, hydrochloride]
Reply text: 1

Inquiry: Report MIC, nothing else, for this molecule: CC1(C)S[C@@H]2[C@H](N=CN3CCC(c4ncc[nH]4)CC3)C(=O)N2[C@H]1C(=O)O [O, hydrochloride trihydrate]
Reply text: 0.25

Inquiry: Report MIC, nothing else, for this molecule: CC1(C)S[C@@H]2[C@H](N=CN3CCC(CCCn4ccnc4CO)CC3)C(=O)N2[C@H]1C(=O)O [R, hydrate]
Reply text: 0.125

Inquiry: Report MIC, nothing else, for this molecule: Cc1nccn1CCCC1CCN(C=N[C@@H]2C(=O)N3[C@@H]2SC(C)(C)[C@@H]3C(=O)O)CC1 [F, hydrate]
Reply text: 0.25

Inquiry: Report MIC, nothing else, for this molecule: CN(C)C=Nc1nccn1CCCC1CCN(C=N[C@@H]2C(=O)N3[C@@H]2SC(C)(C)[C@@H]3C(=O)O)CC1 [S, hydrate]
Reply text: 2

Inquiry: Report MIC, nothing else, for this molecule: "CC1(C)S[C@@H]2[C@H](N=CN3CCC(Cn4ccnc4)CC3)C(=O)N2[C@H]1C(=O)O"
Reply text: 0.25

Inquiry: Report MIC, nothing else, for this molecule: CC1(C)S[C@@H]2[C@H](N=CN3CCCC(c4ncc[nH]4)C3)C(=O)N2[C@H]1C(=O)O (stereo partly shown) [P, hydrochloride]
Reply text: 8

Inquiry: Report MIC, nothing else, for this molecule: CC1(C)S[C@@H]2[C@H](N=CN3CCC(CCC4=NCCN4)CC3)C(=O)N2[C@H]1C(=O)O [N, hydrochloride]
Reply text: 0.062

Inquiry: Report MIC, nothing else, for this molecule: CC1(C)S[C@@H]2[C@H](N=CN3CCC(CCn4ccnc4)CC3)C(=O)N2[C@H]1C(=O)O [B, hydrate hydrochloride]
Reply text: 0.5

Inquiry: Report MIC, nothing else, for this molecule: CC1(C)S[C@@H]2[C@H](N=CN3CCC(Cn4ccnc4CN)CC3)C(=O)N2[C@H]1C(=O)O [J, hydrochloride]
Reply text: 0.25

Inquiry: Report MIC, nothing else, for this molecule: CC1(C)S[C@@H]2[C@H](N=CN3CCC(Cc4ncc[nH]4)CC3)C(=O)N2[C@H]1C(=O)O [Q, hydrochloride]
Reply text: 0.125

Inquiry: Report MIC, nothing else, for this molecule: CC1(C)S[C@@H]2[C@H](N=CN3CCC(CCCn4ccnc4)CC3)C(=O)N2[C@H]1C(=O)O [C, hydrochloride monohydrate]
Reply text: 16
